Please go through the items and note down their fluorescence slope.
Target: Voltage-gated potassium channel subunit beta-2 (Rattus norvegicus)
Test: inhibitors of rat Kvbeta2 reductase activity – biochemical, NADPH fluorescence, primary screen (AID 622);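 note: slope of raw intensity against log time taken from 70 to 1610 s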
Settings: recombinant KvBeta, 4-cyanobenzaldehyde reduction, at 10 µM, stronger effect = higher value
Returns: the value as a bare number; no unit string appended.

The measured fluorescence slope associated with COC(=O)c1ccccc1NC(=O)CSc1nnnn1C1CCCCC1 reads -0.545

The molecule Clc1ccccc1OCc1nn2c(-c3ccncc3)nnc2s1 showed fluorescence slope equal to -0.298

molecule CN(C)CCCN1c2ccccc2Sc2ccccc21 , fluorescence slope observed: -0.511

Reported fluorescence slope of Cc1ccccc1-c1noc(N)c1C#N : -0.317

# fluorescence slope of COc1ccc(CCN(C)CCCC(C#N)(c2ccc(OC)c(OC)c2)C(C)C)cc1OC (stereo not given) = -0.461

The molecule listed as O=C(CN1C(=O)c2cccc3cccc1c23)NCC1CCCO1 (stereo not given) shows fluorescence slope equal to -0.433

Consider COc1nc(N2CCOCC2)nc(-n2cccc2)n1 . Its measured fluorescence slope is -0.547

Form: molecule = CCCCNC(=O)Nc1ccnn1C1CCCCC1 ; fluorescence slope = -0.56

Recorded fluorescence slope (molecule Cn1c(SCC(N)=O)nnc1C1CCN(S(=O)(=O)c2ccccc2C(F)(F)F)CC1 ): -0.214

molecule Cc1ccc(NC2c3ncccc3C(=O)N2C2CCCCC2)cc1C (stereo not given) , fluorescence slope observed: -0.276

Kindly note the recorded fluorescence slope for O=C(O)CC1CCCC(c2ccccc2)C1=O (stereo not given) , which is -0.544

# molecule CCOC(=O)Cn1nnnc1CN(Cc1ccc(OC)cc1)Cc1cc2cc(C)cc(C)c2[nH]c1=O ; its fluorescence slope = -0.595

Record summary for CC(C)NCC(O)COc1ccc(CC(N)=O)cc1 (stereo not given) : reported fluorescence slope = -0.47

fluorescence slope for COc1ccc(S(=O)(=O)n2ccnc2)c2cccnc12 is -0.358

The molecule identified as c1ccc2c(NC3CCCC3)nnc(NC3CCCC3)c2c1 registered its fluorescence slope at -0.419

Looking up O=C(O)C1C2CCC(O2)C1C(=O)Nc1cccc(F)c1 (stereo not given) , I found its fluorescence slope recorded as -0.435

# fluorescence slope (molecule: CCn1nnc(-c2ccccc2NC(=O)c2ccc(-n3cnnn3)cc2)n1 ) is -0.5

The molecule listed as Cc1nc2ccccc2c2oc(C(=O)NCc3ccccn3)cc12 shows fluorescence slope equal to -0.397

The molecule listed as Cc1nc(NCCNC(=O)c2ccco2)c2c(C)c(C)sc2n1 shows fluorescence slope equal to -0.548

fluorescence slope for Cc1ccc(Nc2cc(C)nc3nnnn23)cc1 is -0.559

Please fill in: fluorescence slope reported for COC(=O)c1cccc(S(=O)(=O)N2CCN(c3nc4ccccc4s3)CC2)c1 = -0.539

Lookup result for CCN(CC)c1ccc2c(c1)C(=O)N(C)C2=O ; measured fluorescence slope: -0.417

// field: fluorescence slope; key: Cc1cccc(Nc2ccccc2C(=O)O)c1C ; value = -0.511

Sample COC(=O)Nc1ccc(C)cc1NC(=O)OC ; fluorescence slope observed: -0.574

The reported value for COC(=O)c1ccccc1NC(=O)Nc1cccs1 in terms of fluorescence slope is -0.425

====

Assay: blockers of RIG-like receptor reporter activation – cell-based, Sendai virus stimulus, luciferase, 10K MLSCN set, TLR/RLR signaling modifier project, primary screen (AID 602276);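 note: firefly luciferase from ISG56 promoter only with Renilla not read in this screen; 0% = Sendai virus plus DMSO and 100% = medium plus DMSO without virus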
Conditions: HEK293 RL24 IRF3 luciferase reporter, at 10 µM, stronger effect = higher value
Active and inactive are the calls of the source.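 How the source made its calls: active means inhibition at or above 50% at 10 µM; inactive means inhibition below 50%.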
Give measured inhibition for each item. Keep answers brief.

Noted for COC(=O)Cc1c(C)nc2nc(-c3ccco3)[nH]n2c1=O : its inhibition reads 9.5% (inactive)

Field inhibition (entry Cn1c(SC/C=C/c2ccccc2)nnc1-c1cnccn1 ) reads -12.1% (inactive)

Memo: CCC(Sc1nc2n[nH]c(C)c2c(=N)n1-c1cc(Cl)ccc1C)C(=O)N1CCOCC1 (configuration not stated) , reported inhibition: -6.83% (inactive)

// inhibition value for CCNc1oc(COc2cccc(C)c2)nc1C#N : -43.9% (inactive)

// sample COC(=O)c1ccccc1NC(=O)c1noc2c1CC(C(C)(C)C)CC2 (configuration not stated) , its inhibition was 8.65% (inactive)

Just so you know, measured inhibition for Brc1ccc(C2=Nn3c(nnc3-c3ccncc3)SC2)cc1 came out at 13.7% (inactive)

# inhibition of C/C(=C\c1cc(C(=O)O)c(C)o1)CO = -6.67% (inactive)

Data point: CC1(C)S[C@@H]2[C@H](NC(=O)[C@H](N)c3ccccc3)C(=O)N2[C@H]1C(=O)O ; inhibition = 7.78% (inactive)

Lookup result for COC(=O)c1c(C(=O)OC)n(CCCN)c2ccc(C)cc12 ; measured inhibition: 20.6% (inactive)

inhibition reading for c1ccc2c3nnc4n(c-3nc2c1)CCCS4 : -12.6% (inactive)

The molecule COCCSc1ccccc1C(=O)Nc1cc(C)on1 showed inhibition equal to 14.3% (inactive)

inhibition in this record for CCN1CCCC1CNCc1ccc(Cl)cc1Cl (configuration not stated) : -5.98% (inactive)

====

Test: Primary imaging screen for DUSP6 inhibitors that restore phospho-Erk in transfected HeLa cells, chemical complementation (AID 609)
Conditions: HeLa MKP-3 transfected, phospho-Erk imaging KS statistic; measured here: nuclear c-Myc green intensity z-score; at 10 µM; cells stimulated with TPA for 15 min
Give Criterion met when the value for z-score is at least -0.5. Give Criterion not met when it is less.

Could you verify whether the entry CC[C@]1(O)C[C@@H]2CN(CCc3c([nH]c4ccccc34)[C@@](C(=O)OC)(c3cc4c(cc3OC)N(C)[C@H]3[C@@](O)(C(=O)OC)[C@H](OC(C)=O)[C@]5(CC)C=CCN6CC[C@]43[C@@H]65)C2)C1 shows z-score of no less than -0.5?
Criterion not met

Could you please find out whether CCOC(=O)c1ccc(CSc2ncn[nH]2)o1 has z-score that meets -0.5 or exceeds it?
Criterion not met

Textbook exercise: given the entry CCC(=O)O[C@]1(C(=O)CCl)[C@@H](C)C[C@H]2[C@@H]3CCC4=CC(=O)C=C[C@]4(C)[C@@]3(F)[C@@H](O)C[C@@]21C , state whether its z-score is greater than or equal to -0.5.
Criterion met

Test whether the compound Cc1c(C(=O)O)sc(=S)n1-c1ccccc1 records z-score of -0.5 or higher.
Criterion met

Textbook exercise: given the entry O=C(NC1CCCCC1)[C@H](O)[C@@H](O)C(=O)NC1CCCCC1 , state whether its z-score is greater than or equal to -0.5.
Criterion met

Is reported z-score greater than or equal to -0.5 here: CC(C)(C#N)C(C)(C)c1nn[nH]n1
Criterion met

Please indicate if the recorded z-score for COC(=O)C1C(=O)NCC1c1ccccc1 (stereo not drawn) meets or exceeds -0.5.
Criterion not met

Record CCOC(=O)C(OC(=O)c1sc(=S)n(C)c1C)C(C)=O (stereo not drawn) ; criterion: z-score no lower than -0.5. Met?
Criterion met

Please check the record C=CCNc1nc(C2(C)CC3(CC(C)(C)OC3=O)C(=O)O2)cs1 (stereo not drawn) and state if its z-score is at or above -0.5.
Criterion met

Answer whether z-score of OC(CCN1CCCCC1)(c1ccccc1)C1CCCCC1 (stereo not drawn) is greater than or equal to -0.5.
Criterion met

z-score >= -0.5 for COc1ccc(OCC(=O)OCCN(C)C)cc1 ?
Criterion not met

Hi, just wondering whether COCCN(Cc1ccccc1)P(=O)(O)c1ccccc1OCC(=O)O shows z-score of -0.5 or higher.
Criterion not met

Reported z-score at or above -0.5? N[C@@H](Cc1cc(I)c(Oc2ccc(O)c(I)c2)c(I)c1)C(=O)O
Criterion met

Hi team, for CN1CCN(C2=Nc3cc(Cl)ccc3Nc3ccccc32)CC1 , is the recorded z-score at or above -0.5?
Criterion met

Textbook exercise: given the entry COc1cccc(C(=O)OCCN(C)C(C)(C)C)c1 , state whether its z-score is greater than or equal to -0.5.
Criterion met

Reported z-score at or above -0.5? COc1ccc[nH]c1=O
Criterion met

Check the entry CC(=O)Nc1c(I)c(NC(C)=O)c(I)c(C(=O)O)c1I : does z-score equal or exceed -0.5?
Criterion met

Given CCN(CC)CCNC(=O)c1ccc(N)cc1 , state whether its z-score is at least -0.5.
Criterion not met

Quick check, z-score >= -0.5? CCc1nc(N)nc(N)c1-c1ccc(Cl)cc1
Criterion met

Hi team, for COc1ccc(C(=O)NCC(=O)n2nc(C)cc2C)cc1OC , is the recorded z-score at or above -0.5?
Criterion met

Assess whether reported z-score for NS(=O)(=O)c1cc2c(cc1C(F)(F)F)NCNS2(=O)=O sits at -0.5 or higher.
Criterion met

Could you tell me if the measured z-score of CN(C)CCC(c1ccc(Br)cc1)c1ccccn1 (stereo not drawn) reaches -0.5 or more?
Criterion met
